# System: A549 NSCLC
# Experiment summary: NCI tumour cell line growth inhibition, 48 h
Here the recorded TGI is given for each entry.

Below: 5 compounds and their reported TGI.
Compound: CC(C)(C)c1cc(O)c2c(c1O)C(=O)CCC2
Recorded value: > 100 µM
//
Compound: OC1C2CCC3C2CC(C(O)(c2ccccc2)c2ccccc2)C13 (stereo not drawn)
Recorded value: > 100 µM
//
Compound: CC12CCC(=O)N1c1cc([N+](=O)[O-])ccc1N2 (stereo not drawn)
Recorded value: > 100 µM
//
Compound: COc1cccc([C@@H]2C/C(=N\NC(=O)C(=O)N[C@@H](C)c3ccccc3)c3cc4c(cc3N2)OCO4)c1
Recorded value: > 100 µM
//
Compound: C[C@@]1([C@H](OC(=O)c2cccc3ccccc23)C(N)=O)CO1
Recorded value: > 20.7 µM

Query: Name the reported TGI value associated with the compound N#CC1=C(c2ccccc2)NN(Cc2ccccc2)C(c2ccc(Cl)cc2)CC1=O (stereo not drawn)
Reply: 62.3 µM

Query: Name the reported TGI value associated with the compound O=S(Cc1cnc2ccccc2c1)c1nc2ccccc2nc1-c1cccs1 (stereo not drawn)
Reply: 48.6 µM

Query: Name the reported TGI value associated with the compound O=C1C2c3[nH]c4ccccc4c3C3CCC(c4ccccc4)CC3C2C(=O)N1c1ccccc1 (stereo not drawn)
Reply: > 100 µM

Query: Name the reported TGI value associated with the compound CCCCN1C(=O)C2c3[nH]c4ccccc4c3C3CCCCC3C2C1=O (mixture of isomers)
Reply: 45 µM

Query: Name the reported TGI value associated with the compound CSc1ccc(/C=C/C(=O)c2nc3ccccc3[nH]2)cc1
Reply: 98.6 µM

Query: Name the reported TGI value associated with the compound CCOC(=O)C1Nc2ccc([N+](=O)[O-])cc2[C@H]2OCC[C@@H]12 (stereo partly drawn)
Reply: > 100 µM

Query: Name the reported TGI value associated with the compound COc1cc2c(NCCN(C)C)nc3c4cc5c(cc4ccc3c2cc1OC)OCO5
Reply: 6.67 µM

Query: Name the reported TGI value associated with the compound COC(=O)c1ccc(CS(=O)(=O)c2ccccc2)cc1
Reply: > 100 µM

###

# System: HL-60(TB) leukemia
# Experiment summary: NCI tumour cell line growth inhibition, 48 h
Here the recorded TGI is given for each entry.

Below: 8 molecules and their reported TGI.
Molecule: COc1cc(/C=C/C(=O)c2ccc(F)cc2)ccc1OCCCCOc1cc2c(cc1OC)C(=O)N1CCCC1C=N2 (centres undefined)
Target under test: HL-60(TB) leukemia
TGI: 1.21 µM

Molecule: CCCCCCCCCCCCCCCCSS(C)(=O)=O
Target under test: HL-60(TB) leukemia
TGI: 11.6 µM

Molecule: O=C1/C(=N/N=C(c2ccccc2)c2ccccc2)c2ccccc2-c2ccccc21
Target under test: HL-60(TB) leukemia
TGI: > 100 µM

Molecule: COc1cccc(-c2cc(=O)c3cc(C)c(C)c(C(=O)O)c3o2)c1
Target under test: HL-60(TB) leukemia
TGI: > 100 µM

Molecule: COc1ccc2nc(-c3ccc(Cl)cc3)cc(-c3nnc(SCC(=O)Nc4ccc(/C(C)=N\O)cc4)o3)c2c1
Target under test: HL-60(TB) leukemia
TGI: > 50 µM

Molecule: COc1cccc(-c2cc(C(=O)Nc3ccc(Cl)cc3)nc(N)n2)c1
Target under test: HL-60(TB) leukemia
TGI: > 100 µM

Molecule: Clc1cc2nc[nH]c2cc1Cl
Target under test: HL-60(TB) leukemia
TGI: > 100 µM

Molecule: Cc1ccc2c(=O)cc(-c3cc4ccccc4s3)[nH]c2n1
Target under test: HL-60(TB) leukemia
TGI: > 100 µM

Query: Name the reported TGI value associated with the molecule O=C(CC(C(=O)c1cccs1)c1ccsc1)c1ccc(Cl)cc1 (centres undefined)
Reply: > 100 µM
